# TARGET_UNDER_TEST: Leukotriene B4 receptor 1 (Homo sapiens)
# Sequence (Q15722 whole entry): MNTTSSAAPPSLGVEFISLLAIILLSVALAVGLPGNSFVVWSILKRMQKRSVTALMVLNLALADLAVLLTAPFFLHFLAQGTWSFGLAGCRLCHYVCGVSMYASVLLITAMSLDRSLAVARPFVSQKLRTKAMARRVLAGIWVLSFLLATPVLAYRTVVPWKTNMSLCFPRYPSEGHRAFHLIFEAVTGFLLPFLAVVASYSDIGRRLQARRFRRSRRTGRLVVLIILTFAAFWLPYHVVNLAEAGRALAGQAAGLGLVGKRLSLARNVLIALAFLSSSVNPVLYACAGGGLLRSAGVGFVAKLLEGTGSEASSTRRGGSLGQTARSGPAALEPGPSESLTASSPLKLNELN
OBSERVATION_TYPE: IC50

INSERT INTO results (compound, measured_result) VALUES
  ('CCc1cc(-c2ccn[nH]2)c(O)cc1OCCCOc1ccc(CC(=O)O)cc1', '54 nM'),
  ('CCCc1c(OCCCOc2cc(O)c(-c3cc[nH]n3)cc2CC)ccc2c1OC(C(=O)O)CC2 (stereo unspecified)', '4.5 nM'),
  ('CCc1cc(-c2cc[nH]n2)c(O)cc1OCCCCCOc1ccc(C(=O)O)cc1', '82 nM'),
  ('CCc1cc(-c2cc[nH]n2)c(O)cc1OCCCCCOc1ccc(CCC(=O)O)cc1', '28 nM'),
  ('O=C(O)CCc1cccc(OCCCOc2ccc(-c3cc[nH]n3)cc2)c1', '> 1000 nM'),
  ('CCCc1ccc(CCC(=O)O)cc1OCCCOc1cc(O)c(-c2cc[nH]n2)cc1CC', '738 nM');
